Reported values of TGI for individual entries
# Test system: UO-31 renal
# assayMethodText: NCI tumour cell line growth inhibition, 48 h
recordedEndpoint: TGI (µM)

INSERT INTO results (compound, limitqualifier, measurednumber) VALUES
  ('Cc1ccc(C2NC(=S)N3C(c4ccc(C)cc4)NC(=S)N23)cc1 (stereo unspecified)', '=', 28.2),
  ('COc1ccc(C2c3cc4c(c(OC)c3CC3OCC(=O)C32)OCO4)cc1OC (stereo unspecified)', '=', 48.4),
  ('O=NNc1ccc(Sc2ccc3ccccc3c2)cn1', '>', 100),
  ('Cc1cn(C2CC(N=[N+]=[N-])C(CO)O2)c(=O)[nH]c1=O (stereo unspecified)', '>', 1000),
  ('Cc1ccccc1C(=O)NC(O)(C(F)(F)F)C(F)(F)F', '>', 100),
  ('O=C1NC(=O)/C(=C/c2ccc(S(=O)(=O)N/N=C/c3ccccc3)cc2)N1', '>', 100),
  ('COC(=O)C(=O)c1cc2ccccc2n1S(=O)(=O)c1ccccc1', '>', 100),
  ('CCOC(=O)c1c(SC)nc(-c2ccc(Cl)cc2)sc1=N', '>', 100),
  ('C[C@@H](Oc1cc(-c2cnn(C3CC4(CNC4)C3)c2)cnc1N)c1c(Cl)ccc(F)c1Cl', '=', 18.3),
  ('Cc1cc(O)c2c(c1)C(=O)C=C(Br)C2=O', '=', 28.9),
  ('CS(=O)/C(C#N)=C\C=C\c1cccc(Cl)c1 (stereo unspecified)', '=', 6.56);

Origin of the recorded values: PubChem BioAssay (NCI)
